Assign protein stability index to each entry below.
B1: HSP90AB1 (parent)
chain: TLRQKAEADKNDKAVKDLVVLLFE

variants of: B1; assay: protein stability index of a GFP-peptide fusion (GPS, HEK-293T) (PSI 1-6); higher = more stable; settings: c terminus: a fixed tail appended;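 also: lentivirally expressed fusions sorted by FACS into six bins by GFP to DsRed ratio, PSI derived from sequencing read proportions per bin multiplied by bin number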
Numbers only.

// known answers, use as guide
{"CONSTRUCT SEQUENCE": "TLRQKAEADKNDKAVKDLQVLLFE", "protein stability index": 4.23}
{"CONSTRUCT SEQUENCE": "TLRQKAEADKNDKAVKDLVVLLEE", "protein stability index": 5.22}
{"CONSTRUCT SEQUENCE": "TLRQKAEAYKNDKAVKDLVVLLFE", "protein stability index": 2.87}
{"CONSTRUCT SEQUENCE": "TLRQKWEADKNDKAVKDLVVLLFE", "protein stability index": 3.32}
{"CONSTRUCT SEQUENCE": "TLAQKAEADKNDKAVKDLVVLLFE", "protein stability index": 3.46}

Respectfully, I request protein stability index for each entry included below.
1. TLRQKAEADKNDKAVKDLVVKLFE
2. TLRQKAEADKNFKAVKDLVVLLFE
3. TLRQKAEADKNDKAVKDLVVLLFT
4. TLRQKAEADKNDKAVKDLVVALFE

Found:
2.91
2.24
2.14
2.67

Respectfully, I request protein stability index for each entry included below.
1. TLRQKAEADKNDKAVKDLVVLLAE
2. TLRQKAEADKNDKAVKDLVVLVFE
3. TLRQKAEADKNDKAVKDLVVLLFK
4. TLRQKAEADKNPKAVKDLVVLLFE
5. TLQQKAEADKNDKAVKDLVVLLFE

Found:
3.7
3.73
2.06
2.49
3.11
